# Experimental System: KPC-2 (Klebsiella pneumoniae, UniProt Q9F663)
# Construct: made in house; host or cells: E. coli (DH5 and BL21(DE3) named; pET-28a)
# Sequence (Q9F663 25-293, looked up, species assumed): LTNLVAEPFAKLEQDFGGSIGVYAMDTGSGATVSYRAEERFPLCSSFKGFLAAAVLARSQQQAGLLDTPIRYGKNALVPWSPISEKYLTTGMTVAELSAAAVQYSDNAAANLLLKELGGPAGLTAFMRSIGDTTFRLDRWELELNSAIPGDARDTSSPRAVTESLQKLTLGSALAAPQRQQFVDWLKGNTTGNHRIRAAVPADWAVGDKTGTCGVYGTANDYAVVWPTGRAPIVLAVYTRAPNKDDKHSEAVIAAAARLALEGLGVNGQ
# Assay Name: Steady-state kinetics of antibiotic hydrolysis with inhibitor
# Assay type: biochemical
# Experimental Conditions: imipenem, inhibitor concentration as per IC50
# Protocol: The enzyme kinetics parameters (Km, and kcat) for all six proteins/enzymes in combination with different antibiotics (cefotaxime, imipenem, and meropenem), were calculated. […] The steady-state kinetics of all six proteins were determined using the antibiotics:imipenem (Δε295 = −11,500 M^−1 cm^−1), meropenem (Δε297 = −10,940 M^−1 cm^−1), and cefotaxime (Δε264 = −27,250 M^−1 cm^−1). […]
Value Kind: kcat (S^−1)
The response must be a number in S^−1 with no trailing unit.

- Molecule: "O=C(c1ccccc1)C1CCN(C(=O)CN2C(=O)c3ccccc3C2=O)CC1"
  Experimental System: "KPC-2 (Klebsiella pneumoniae, UniProt Q9F663)"
  Units Label: "S^−1"
  kcat: 3.44
- Molecule: "NC(=O)[C@@H]1CC[C@@H]2CN1C(=O)N2OS(=O)(=O)O [Avibactam, reference compound]"
  Experimental System: "KPC-2 (Klebsiella pneumoniae, UniProt Q9F663)"
  Units Label: "S^−1"
  kcat: 1.499
- Molecule: "O=C(CN1C(=O)c2ccccc2S1(=O)=O)c1ccc(O)c(O)c1"
  Experimental System: "KPC-2 (Klebsiella pneumoniae, UniProt Q9F663)"
  Units Label: "S^−1"
  kcat: 0.39

Could you now look at the following molecule, please?
Query: Value lookup for kcat; key = `O=C(O)c1ccccc1C(=O)N1CCN(c2nc(-c3ccccc3)ns2)CC1`
Result: 0.419

----------
# Test system: E. coli DH5α cells with blaTEM-1 clone
# Assay Name: microbe, parasite or virus in culture
# Format: cell-based
# Experimental Conditions: Escherichia coli
Value Kind: MIC (µg/mL)
The response must be a number in µg/mL with no trailing unit.

See these solved cases before continuing.
- Chemical Smiles: "C[C@@H](O)[C@H]1C(=O)N2C(C(=O)O)=C(S[C@@H]3CN[C@H](C(=O)N(C)C)C3)[C@H](C)[C@H]12"
  Value Kind: "MIC"
  Reported: 2
- Chemical Smiles: "C[C@@H](O)[C@H]1C(=O)N2C(C(=O)O)=C(SCCN=CN)C[C@H]12"
  Value Kind: "MIC"
  Reported: 16
- Chemical Smiles: "CO/N=C(\\C(=O)N[C@@H]1C(=O)N2C(C(=O)O)=C(COC(C)=O)CS[C@H]12)c1csc(N)n1"
  Value Kind: "MIC"
  Reported: 2

Could you now look at the following compound, please?
Query: Value lookup for MIC; key = `CO[C@@]1(NC(=O)Cc2cccs2)C(=O)N2C(C(=O)O)=C(COC(N)=O)CS[C@@H]21`
Result: 32

----------
The reader will find reported Km or Ki values listed item by item below.
# Experimental System: TEM-1 (Escherichia coli, UniProt P62593)
# Construct: made in house; host or cells: E. coli (DH5 and BL21(DE3) named; pET-28a)
# Sequence (P62593 24-286 limits assumed): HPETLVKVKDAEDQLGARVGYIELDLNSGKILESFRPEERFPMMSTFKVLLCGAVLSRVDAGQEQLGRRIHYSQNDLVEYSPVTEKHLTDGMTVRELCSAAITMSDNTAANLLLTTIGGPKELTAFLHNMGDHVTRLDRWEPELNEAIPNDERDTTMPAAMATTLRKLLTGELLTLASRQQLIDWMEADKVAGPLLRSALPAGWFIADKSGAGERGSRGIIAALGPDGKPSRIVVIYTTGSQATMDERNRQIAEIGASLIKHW
# Assay Name: Steady-state kinetics of antibiotic hydrolysis with inhibitor
# Assay type: biochemical
# Experimental Conditions: imipenem, inhibitor concentration as per IC50
# Description: The enzyme kinetics parameters (Km, and kcat) for all six proteins/enzymes in combination with different antibiotics (cefotaxime, imipenem, and meropenem), were calculated. […] The steady-state kinetics of all six proteins were determined using the antibiotics:imipenem (Δε295 = −11,500 M^−1 cm^−1), meropenem (Δε297 = −10,940 M^−1 cm^−1), and cefotaxime (Δε264 = −27,250 M^−1 cm^−1). […]
The response must be a number in μΜ with no trailing unit.

- Chemical Smiles: "O=C(CN1C(=O)c2ccccc2S1(=O)=O)c1ccc(O)c(O)c1"
  Reported: 673.1

Could you now look at the following compound, please?
Query: Value lookup for Km or Ki; key = `O=C(c1ccccc1)C1CCN(C(=O)CN2C(=O)c3ccccc3C2=O)CC1`
Result: 689.7
